Reference for the values: PubChem BioAssay AID504466

# experimental-details: qHTS screen for small molecules that induce genotoxicity in human embryonic kidney (HEK293T) cells expressing luciferase-tagged ELG1; note: nearly all actives have a fitted effect of over 60% in size; note: potency is the fitted concentration of half-maximal effect
# condition-summary: HEK293T ELG1-luciferase reporter, luminescence, 16 h; series mostly up to 46 µM
Screen size: about 330,000 compounds; about 4,200 (1.3%) were called active. Not shown: some 6% with an inconclusive outcome. The sample holds actives, similar compounds and a random draw of the others, so the mix is not that of the screen.
experimental-readout: Potency

>>> df
                               input_smiles            result
0     COc1cc(C)ccc1OCC(=O)OCC(=O)c1ccc[nH]1          inactive
1              Cc1cccc(NC(=O)COc2ccccc2C)n1  18.4 µM (active)
2  C[C@@H](CN1CCC[C@H]1CN1C(N)=NC[C@@H]1Cc1ccccc1)N1C[C@@H](Cc2ccccc2)N(CCCC2CCCC2)C1=N          inactive
